Test system: K-562 leukemia
Assay: NCI-60 one-dose screen, 48 h (100 = growth as untreated, 0 = no growth, -100 = all killed)
Details: 10 µM unless noted
Compounds without any hit were thinned out: in the full panel of roughly 83,000, 20% have a hit.
Endpoint Name: growth (%)
Write the number in % without appending the unit.

Qu. Please state recorded growth (tested on K-562 leukemia) of `CSc1[nH]c2ncnc(N)c2c1C#N`
Ans. 84.6

Qu. Try this compound next: `O=C(CCCCN1CCOCC1)Nc1ccc(Cn2nnc3c2C(=O)c2nnn(Cc4ccc(NC(=O)CCCCN5CCOCC5)cc4)c2C3=O)cc1`
Ans. 6.24

---

In this section, each of the compounds is paired with its reported growth.
System: NCI-H460 lung
Experiment: NCI-60 one-dose screen, 48 h (100 = growth as untreated, 0 = no growth, -100 = all killed)
Details: 10 µM unless noted
This is part of a sample that, as a whole, favours compounds with a hit. Of some 83,000 tested, about 20% had one in any assay.
Write the number in % without appending the unit.

Test Smiles	Endpoint Unit	growth
O=C(CCCCN1CCOCC1)Nc1ccc(Cn2nnc3c2C(=O)c2nnn(Cc4ccc(NC(=O)CCCCN5CCOCC5)cc4)c2C3=O)cc1	%	-39.8
COc1cc2c(=O)n(CC3CCCCC3)c3c4cc[nH]c4ncc3c2cc1OC	%	21.1
COc1ccc2[nH]c(=O)c(/C=C/C(=O)c3ccc(Nc4nccc(-c5ccc6ccccc6c5)n4)cc3)cc2c1	%	102
CCCCCn1cnc2c(=S)nc[nH]c21	%	98.5
O=S(=O)(NCCCNc1cc(-c2cn(-c3ccccc3)nc2-c2cccc(O)c2)ccn1)c1ccccc1	%	39

Now consider the entry below.
Qu. Reported growth, compound `CCCCN(CC)CCCCCCCCCCN1CCCc2cc(OC)ccc21` : ____
Ans. 28.5

---

System: SK-MEL-28 melanoma
Assay: NCI-60 one-dose screen, 48 h (100 = growth as untreated, 0 = no growth, -100 = all killed)
Details: 10 µM unless noted
The panel holds about 83,000 compounds, 20% with a hit somewhere; the sample as a whole holds those more often.
Endpoint Name: growth (%)
Write the number in % without appending the unit.

Compound	Measured On	growth, %
CC/C=C\C[C@H](F)C/C=C1/C(=O)C=C[C@@H]1C/C=C\CCCC(=O)OC	SK-MEL-28 melanoma	9.64
Cc1cc(Nc2nc(N3CCN(C)CC3)nc3ccccc23)n[nH]1	SK-MEL-28 melanoma	68.8
Cc1ccc2cnc(N)c(C#Cc3cncc(C(=O)Nc4ccc(CN5CCN(C)CC5)c(C(F)(F)F)c4)c3)c2c1	SK-MEL-28 melanoma	-90.8
O=C1OC2C(I)C3CC2C1C3c1ccccc1 (stereo not given)	SK-MEL-28 melanoma	105
COc1cnc2c(c1)C(=O)c1c-2n(CCCN2CCNCC2)c(=O)c2cc([N+](=O)[O-])ccc12	SK-MEL-28 melanoma	-76.6
Cn1cc(-c2nc(-c3c[nH]c4ccccc34)cs2)c2cccnc21	SK-MEL-28 melanoma	52.4
COc1ccc2nc3cc(Cl)ccc3c(N3CCN(c4nccc(Nc5ccccc5)n4)CC3)c2c1	SK-MEL-28 melanoma	83.5
CS(=O)(=O)c1ccc(-c2cnc3ccc(-c4cccc(S(C)(=O)=O)c4)nn23)cc1	SK-MEL-28 melanoma	52.5
CC(=O)N1CC(Nc2ccc(OC(F)(F)F)cc2)=CC1=O	SK-MEL-28 melanoma	56.5

Now consider the entry below.
Qu. Reported growth, compound `O=C(/C=C/c1ccc(Cl)cc1)/C=C/c1cc2ccccc2[nH]c1=O` : ____
Ans. 76.1

---

In this section, each of the molecules is paired with its reported growth.
Tested on: OVCAR-8 ovarian
Test: NCI-60 one-dose screen, 48 h (100 = growth as untreated, 0 = no growth, -100 = all killed)
Conditions: 10 µM unless noted
Compounds without any hit were thinned out: in the full panel of roughly 83,000, 20% have a hit.
Write the number in % without appending the unit.

Molecule	Val
Oc1cc(O)c2c(=S)cc(-c3ccc(Cl)cc3)oc2c1	35
O=C1c2cccnc2C(=O)c2c1c(C(=O)OCCN1CCOCC1)c1ccccn21	9.13

Qu. Please state recorded growth (tested on OVCAR-8 ovarian) of `CCCCCCCCCCNC(=O)CCl`
Ans. 47.8

Qu. Try this molecule next: `O=C1O[C@H]([C@H](O)CO)C(O)=C1O`
Ans. 97

Qu. Try this molecule next: `NC1=CSC2=N/C(=C\c3ccc(Cl)cc3)C(=O)N12`
Ans. 72.3

---

Tested on: OVCAR-4 ovarian
Experiment: NCI-60 one-dose screen, 48 h (100 = growth as untreated, 0 = no growth, -100 = all killed)
Conditions: 10 µM unless noted
The panel holds about 83,000 compounds, 20% with a hit somewhere; the sample as a whole holds those more often.
Respond with condition met for growth values of 90% and above, condition not met for values below.

Solved cases below.
Compound	Measured On	Assigned Category
COc1cc2c(cc1O)CCc1cc(O)cc(OC)c1-2	OVCAR-4 ovarian	condition met
S=c1[nH]nc(CSc2ncnc3c2c(-c2ccccc2)cn3-c2ccc(Cl)cc2)o1	OVCAR-4 ovarian	condition met
O=C1Nc2ccccc2C12CC(c1ccccc1)=NN2 (stereo not given)	OVCAR-4 ovarian	condition not met
O=C([C@@H](COCc1ccccc1)N1C(=O)[C@@H](N2C(=O)OC[C@@H]2c2ccccc2)[C@H]1/C=C/c1ccccc1)N1CCC(CCN2CCCCC2)CC1	OVCAR-4 ovarian	condition not met

Qu. Assess whether reported growth for `O=C(CN1CCN(c2cc3c(cc2F)c(=O)c(C(=O)O)cn3C2CC2)CC1)Nc1cc(=O)[nH]c(=O)[nH]1` sits at 90% or higher.
Ans. condition met

---

Test system: NCI-H226 lung
Assay: NCI-60 one-dose screen, 48 h (100 = growth as untreated, 0 = no growth, -100 = all killed)
Conditions: 10 µM unless noted
This is part of a sample that, as a whole, favours compounds with a hit. Of some 83,000 tested, about 20% had one in any assay. Activity calls are given as the source filed them. The calls were made as follows: active = growth percent below 10; inactive = the rest.
Endpoint Name: growth

Compound	Measured On	Endpoint Name	Val
CC1=NNC(=O)C1C (stereo not given)	NCI-H226 lung	growth	93.5% (inactive)

Qu. Please state recorded growth (tested on NCI-H226 lung) of `COc1cccc(-n2cc(-c3nc(Nc4cc(C)[nH]n4)c4ccccc4n3)nn2)c1`
Ans. 49.9% (inactive)

Qu. Try this compound next: CCC(c1ccccc1)C(CC)c1ccc(O)c(O)c1 (stereo not given)
Ans. 97.4% (inactive)

Qu. Try this compound next: CCN(CC)CCCC(C)N/C(=C1\C(=O)NC(=O)\C1=C(/NC(C)CCCN(CC)CC)c1cccc(OC)c1)c1cccc(OC)c1 (stereo not given)
Ans. -21.3% (active)

Qu. Try this compound next: `O=C1NC(=O)C(CC(=O)n2c(-c3ccccc3)nc3ccccc32)C(=O)N1`
Ans. 97.7% (inactive)

---

Test system: NCI-H460 lung
Assay: NCI-60 one-dose screen, 48 h (100 = growth as untreated, 0 = no growth, -100 = all killed)
Settings: 10 µM unless noted
About 83,000 compounds went through this panel and 20% of them were active in at least one assay; those are over-represented in the sample as a whole.
Entries whose growth is below 30% take t; entries at or above 30% take f.

Solved cases below.
Molecule	Measured On	Assigned Category
Nc1cccc(-c2nc3sccn3c2-c2ccnc(NCCCNS(=O)(=O)c3ccc(C(F)(F)F)cc3)n2)c1	NCI-H460 lung	t
CCOC(=O)C(=Cc1ccccc1F)C(=O)OCC	NCI-H460 lung	f
CCOC(=O)c1cnc2cc(Cl)c(F)cc2c1Nc1cccc(NS(C)(=O)=O)c1	NCI-H460 lung	f

Qu. In the record for `Oc1ccccc1/C=N/Nc1ccc2ccccc2n1` , is growth less than 30%?
Ans. t

Qu. Try this molecule next: `Cc1ccc(SCN2CCN(c3cccc(Cl)c3)CC2)cc1`
Ans. f

Qu. Try this molecule next: `O=C(/C=C\c1ccc2ccccc2n1)c1cc(Cl)ccc1O`
Ans. f

Qu. Try this molecule next: `COc1ccc(CN2C(=O)/C(=C\c3cc(OC)c(OC)c(OC)c3)c3cc(OC)ccc32)cc1`
Ans. t

Qu. Try this molecule next: `Cc1ccc2c(c1)O/C(=C\c1cccc(OCC(=O)c3ccccc3)c1)C2=O`
Ans. f

Qu. Try this molecule next: `Oc1cccc(Nc2nccc(-c3ccc4ccccc4c3)n2)c1`
Ans. t

Qu. Try this molecule next: CCN(CC)CCCC(C)N/C(=C1\C(=O)NC(=O)\C1=C(/NC(C)CCCN(CC)CC)c1cccc(OC)c1)c1cccc(OC)c1 (stereo not given)
Ans. t

Qu. Try this molecule next: CCCCCCCCCCCCCC(=O)C(C)N (stereo not given)
Ans. t

---

Tested on: ACHN renal
Test: NCI-60 one-dose screen, 48 h
Settings: 10 µM unless noted
The panel holds about 83,000 compounds, 20% with a hit somewhere; the sample as a whole holds those more often. Active and inactive are the calls of the source. Rule for the calls: active = growth percent below 10; inactive = the rest.
Parameter call: string, one of 1 (yes) = active, 0 (no) = inactive

Test Smiles	Assigned Category
O=[N+]([O-])c1cccc(-c2nc3sccn3c2-c2ccnc(NCCCNS(=O)(=O)c3cccc(F)c3)n2)c1	1 (yes)
COc1cc(NC(N)=NCC(C)(C)COc2ccc(C(F)(F)F)cc2)cnc1C#N	0 (no)
COc1cc2c(cc1O)CCc1cc(O)cc(OC)c1-2	0 (no)
COc1cnc2c(c1)C(=O)c1c-2n(CCCBr)c(=O)c2cc([N+](=O)[O-])ccc12	1 (yes)

Continue with the compound presented below.
Qu. What did the test return for `CC/C(Cc1ccccc1)=C(\c1ccc(OCCN2CCCC2)cc1)c1ccc(OC(C)=O)cc1` ?
Ans. 0 (no)
